biological target: Cytochrome P450 2C9 (Homo sapiens); experiment: qHTS Assay for Inhibitors and Substrates of Cytochrome P450 2C9 (AID 883); conditions: recombinant CYP2C9, luciferin-H luminescence, 60 min; series mostly up to 11.4 µM; note: nearly all actives have a fitted effect of over 60% in size; note: potency is the fitted concentration of half-maximal effect
Records with an inconclusive call do not appear. The source made the active and inactive calls. Calls come from the whole dose curve; as a rule, active = well fitted inhibition curve with a large enough effect; inconclusive = small, poorly fitted or top-dose-only effect; inactive = no such curve, though single readings can be large or run the other way.
readout type: Potency

compound	readout type	reading
COC(=O)N(/C=C/c1ccc(OC)cc1)CCc1ccc(OC)c(OC)c1	Potency	3.16 µM (active)
COC(=O)NC(c1cccc(F)c1)[C@]1(C(C)=O)CCCC1=O (stereo not given in full)	Potency	inactive
COC(=O)NC(CC(C)=O)c1cccc(C(F)(F)F)c1 (stereo not given)	Potency	inactive
C[C@@H](c1ccccc1)N1C(=O)[C@H]2[C@@H]3[C@H](O)[C@H](O)CC(=O)[C@H]3CC[C@H]2C1=O	Potency	inactive

Alright, here's another compound for you.
Recorded Potency for COc1cccc([C@H]2Oc3ccc(OC)cc3/C(=N\O[C@@H](C)c3cn([C@H](CO)Cc4ccccc4)nn3)[C@@H]2O)c1 on Cytochrome P450 2C9 (Homo sapiens) was 1.58 µM (active)

====

target: Tyrosine-protein kinase Yes (Homo sapiens); assay: qHTS for small molecule inhibitors of Yes1 kinase: Primary Screen (AID 686947); conditions: Yes1 kinase biochemical qHTS inhibition; series mostly up to 76.9 µM; note: nearly all actives have a fitted effect of over 60% in size
Inconclusive results are not listed. The source made the active and inactive calls. Calls follow the shape of the dose curve; as a rule, active = well fitted inhibition curve with a large enough effect; inconclusive = small, poorly fitted or top-dose-only effect; inactive = no such curve, though single readings can be large or run the other way.
Choose the fitting class; nothing outside active, inactive is accepted.

Worked examples follow.
compound	discrete label
CCn1c(-c2nonc2N)nc2c(C#CC(C)(C)O)ncc(OCC3CCNCC3)c21	active
COC(=O)c1ccc2c(c1)/C(=C/c1cc(Br)c(O)c(Br)c1)C(=O)N2	active
CCn1c(-c2nonc2N)nc2cncc(C(=O)N3CCNCC3)c21	active
CCN(CC)Cc1ccc(Nc2nccc(-c3cnn4ncccc34)n2)cc1	active
CCc1cccc(NC(=O)Nc2ccc(Oc3ccc4nc(NC(=O)OC)[nH]c4c3)cc2)c1	inactive

Lookup: Please indicate how the test categorized Cc1ccc(NC(=O)c2ccnc(N3CCCC3)c2)cc1-c1ccc(C(=O)NCC2CC2)cc1 .
Found: inactive

Lookup: Please indicate how the test categorized COc1cc2c(cc1Nc1nc(N3CCc4ccccc43)c3cc[nH]c3n1)N(C(=O)CN(C)C)CC2 .
Found: inactive

Lookup: Please indicate how the test categorized CNC(=O)c1ncccc1Nc1nc(Nc2cc3c(cc2OC)CCCN3C(=O)CN(C)C)nc2[nH]ccc12 .
Found: inactive

Lookup: Please indicate how the test categorized COc1cc2c(cc1Nc1nc(Nc3cccc(F)c3C(N)=O)c3cc[nH]c3n1)N(C(=O)CN1CCN(C(C)C)CC1)CC2 .
Found: inactive

Lookup: Please indicate how the test categorized COc1ccccc1Nc1ncc(-c2ccccc2)o1 .
Found: active

Lookup: Please indicate how the test categorized COc1ccc(-c2nn3ncccc3c2-c2ccnc(Nc3ccc4c(c3)OCCO4)n2)cc1 .
Found: active

Lookup: Please indicate how the test categorized O=C(OC1CNC(C#Cc2cc3ncnc(Nc4ccc(Cc5ccccc5)cc4)c3s2)C1)N1CCOCC1 (stereo not drawn) .
Found: active

Lookup: Please indicate how the test categorized COc1cc(Nc2nccc(-c3cnn4ncccc34)n2)cc(OC)c1 .
Found: active

====

A collection of compounds and their measured max response
test: qHTS assay for small molecule agonists of retinoid X receptor alpha signaling (AID 588544); conditions: HEK293T RXRa-UAS-bla, beta-lactamase reporter, 18 h; 530 nm emission
Records with an inconclusive call do not appear.
Kindly provide the numeric value in % only, without the unit symbol.

Take a look at these entries with their results.
compound	max response [%]
c1ccc2c(c1)Cc1ccccc1-2	-12.1
OCCC(F)(F)C(F)(F)C(F)(F)C(F)(F)C(F)(F)C(F)(F)C(F)(F)C(F)(F)F	-23.4
CC(C)(C)[C@H](O)[C@H](Cc1ccc(Cl)cc1)n1cncn1	-4.23
Cc1ccc(S(=O)(=O)C(I)I)cc1	-69.8
NCCCCCCCCCCC(=O)O	-7.72

Given item CCOC(=O)CCCCCCCCC(=O)OCC , the value recorded as its max response is 3.8

Given item C=CCCCCCCCCCC , the value recorded as its max response is -13.8

Given item C=CC(=O)OCC(C)OCC(C)OCC(C)OC(=O)C=C (stereo unspecified) , the value recorded as its max response is -8.39

====

assay: qHTS for Inhibitors of Plasmodium falciparum (GB4) proliferation (AID 504315); note: nearly all actives have a fitted effect of over 50% in size; conditions: P. falciparum GB4 in erythrocytes, SYBR Green DNA, 72 h; series mostly up to 6.7 µM
Results filed as inconclusive are left out. Active and inactive are the calls of the source. Calls follow the shape of the dose curve; as a rule, active = well fitted inhibition curve with a large enough effect; inconclusive = small, poorly fitted or top-dose-only effect, or effect the other way; inactive = flat fitted curve, though single readings scatter.
Choose the fitting class; nothing outside class 1 (active), class 0 (inactive) is accepted.

compound	discrete label
COC(=O)CCC(=O)OC1(C)C(=O)C=C2C=C(C3CC3)N(c3ccccc3)C=C2C1=O (stereo unspecified)	class 0
COC(=O)C1=C(C(=O)OC)[C@@H]2N(Cc3ccccc3)c3ccccc3[C@@]23C[C@@H](C(=O)OC)N(S(=O)(=O)c2ccc4c(c2)OCCN4C)C3=N1	class 1
COC(=O)CCC(=O)OC1(C)C(=O)C=C2C=C(C3CC3)N(c3ccc(OC)cc3)C=C2C1=O (stereo unspecified)	class 0
C[C@H]1Cc2c(COc3ccccc3)nc3c(c2CO1)CN(S(=O)(=O)c1ccc(C#N)cc1)CC3	class 0
COC(=O)C1=C(C(=O)OC)[C@@H]2N(C)c3ccccc3[C@@]23C[C@@H](C(=O)OC)N(S(=O)(=O)c2ccc4c(c2)OCCN4C)C3=N1	class 1

Read the next record carefully.
Lookup: Please indicate how the test categorized CCCCC1=CC2=CC(=O)C(C)(OC(=O)CC)C(=O)C2=CN1CCCN(CC)CC (stereo unspecified) .
Found: class 0

====

experiment: qHTS assay for small molecule antagonists of peroxisome proliferator-activated receptor delta signaling (AID 588535); conditions: HEK293T PPARd-UAS-bla, beta-lactamase FRET ratio, 18 h; 460 nm channel;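 note: cells co-treated with a PPAR-delta agonist as stimulator during compound exposure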
Records with an inconclusive call do not appear.
A collection of molecules and their measured max response
Kindly provide the numeric value in % only, without the unit symbol.

molecule	unit symbol	reading
O=C(Cl)c1cccc(C(=O)Cl)c1	%	-11.7
O=[N+]([O-])c1ccc(O)cc1C(F)(F)F	%	-4.35
C=Cc1ccc(P(c2ccccc2)c2ccccc2)cc1	%	16.9
CN(C)CCOCCN(C)C	%	2.82
O=C(O)CCCCCCCCCCC(=O)O	%	18.9

Given item CC(C)(C)c1cccc(C(C)(C)C)c1O , the value recorded as its max response is -24.3

Given item CCCCCCCCCCCO , the value recorded as its max response is -7.63

Given item CCN(Cc1c(F)cccc1Cl)c1c([N+](=O)[O-])cc(C(F)(F)F)cc1[N+](=O)[O-] , the value recorded as its max response is -79

Given item O=C(O)c1cccc(C(=O)O)c1 , the value recorded as its max response is -2.92

Given item CN(C)c1nc(=O)n(C2CCC(O)CC2)c(=O)n1C (configuration not stated) , the value recorded as its max response is 20.4

Given item O=C(OCCOCCOC(=O)c1ccccc1)c1ccccc1 , the value recorded as its max response is 59.9

Given item CC(=O)OC1CCC(C(C)(C)C)CC1 (configuration not stated) , the value recorded as its max response is -10.4

Given item CC(=O)OC(C)(C)C1CC=C(C)CC1 (configuration not stated) , the value recorded as its max response is -21.5

Given item Cc1ccc(C(=O)c2ccccc2)cc1 , the value recorded as its max response is -13.1

Given item O=c1oc(=O)c2cc3c(=O)oc(=O)c3cc12 , the value recorded as its max response is 11

Given item C=CCCCCCCCCCCCC , the value recorded as its max response is 14.9

Given item O=C(O)C(c1ccc(Cl)cc1)c1ccc(Cl)cc1 , the value recorded as its max response is -10.8

====

A collection of compounds and their measured max response
test: qHTS assay for small molecule agonists of retinoid X receptor alpha signaling (AID 588544); conditions: HEK293T RXRa-UAS-bla, beta-lactamase reporter, 18 h; 530 nm emission
Results filed as inconclusive are left out.
Kindly provide the numeric value in % only, without the unit symbol.

Given item CS/C(=N\O)C(=O)N(C)C , the value recorded as its max response is 6.39

Given item CCCCCCCC/C=C\CCCCCCCCCCCCC , the value recorded as its max response is 4.69

Given item Clc1nc(Cl)c(Cl)c(Cl)c1Cl , the value recorded as its max response is -3.68

Given item Fc1ccc(Br)cc1 , the value recorded as its max response is 4.76

Given item CCCCCCCCCCCCCCCCCCN , the value recorded as its max response is -24

Given item O=C(O)c1ccc2c(c1)C(=O)OC2=O , the value recorded as its max response is -9.87

Given item CCCCC(CC)COC(=O)c1ccc(C(=O)OCC(CC)CCCC)cc1 (stereo not drawn) , the value recorded as its max response is -8.11

Given item CO[Si](OC)(OC)c1ccccc1 , the value recorded as its max response is -13.7

Given item C/C=C/C=C/CCCCCCCO , the value recorded as its max response is 11.1

Given item O=C(O)CN(CCCN(CC(=O)O)CC(=O)O)CC(=O)O , the value recorded as its max response is -16.9

Given item Cn1c(=O)[nH]c(=O)n(C2CCC(O)CC2)c1=O (stereo not drawn) , the value recorded as its max response is -1.18

Given item CC(C)(N=C=O)c1cccc(C(C)(C)N=C=O)c1 , the value recorded as its max response is 8.92

Given item C=CCOc1nc(OCC=C)nc(OCC=C)n1 , the value recorded as its max response is -0.634
